This collection of values is drawn from a melting point compilation (Tetko et al.; mined from patent text by program, amines drawn as free bases though some values may be those of a salt).

outcome-measure: melting point (°C)

1. O=c1nc(-c2ccccn2)sc2cc(F)ccc12
2. COC(=O)c1cc(-c2ccc(Cl)c(C)c2)n(Cc2ccc(C)cc2)n1
Could you tell me which of 1 and 2 has the lower melting point reading? Response format: the label of the selected entry. 2

----------
outcome-measure: melting point

In the examples that follow, each entry is paired with its recorded melting point.
compound	melting point
CCOCc1nc2c(N)nc3ccccc3c2n1CCCC(=O)OCC	129 to 131 °C
CC1(C)Cc2c(c(N3CCCC3)nc3sc4c(NCc5ccccn5)ncnc4c23)CO1	249 to 251 °C
N=c1sc2cc(OC(F)(F)F)ccc2n1CCSc1ccccn1	104 °C
O=S(=O)(Nc1ccc(Cl)cc1Sc1ccc(Cl)cc1)C(F)(F)F	83 to 84 °C

Reported melting point, compound O=C(O)CCCC(=O)N[C@@H](Cc1ccccc1)C(=O)NCCCCNc1ncccn1 : ____ 186 °C

Reported melting point, compound CN(C)C1Cc2cccc3[nH]c(=O)n(c23)C1 (centres undefined) : ____ 220 to 223 °C

Reported melting point, compound CCOCCn1cc(C2CCN(CCOc3ccccc3C(=O)O)CC2)c2cccnc21 : ____ 137 to 140 °C

Reported melting point, compound CC(=O)OC(CCc1cc(C(C)(C)C)c(O)c(C(C)(C)C)c1)CCc1cc(C(C)(C)C)c(O)c(C(C)(C)C)c1 : ____ 82 to 85 °C

Reported melting point, compound CCCCC(=O)c1sc(Oc2ccc3c(c2)OCO3)c2c1CCc1cnn(C)c1-2 : ____ 101 to 102 °C

----------
outcome-measure: melting point (°C)

compound	melting point / °C
CCOC(=O)C1=C(N)NC(N)=C(C(=O)OCC)C1c1ccccc1[N+](=O)[O-]	142
CCN(CCCc1c[nH]c2c(F)cc(F)cc12)C1COc2c(C(N)=O)ccc(F)c2C1 (stereo not given)	125

----------
outcome-measure: melting point

In the examples that follow, each entry is paired with its recorded melting point.
compound	outcome-measure	reported-result
O=c1[nH]c2c(CCN3CCN(c4ncccn4)CC3)cccc2o1	melting point	189 to 190 °C
COCc1cnc2c(NC(=O)c3c(Cl)cccc3Cl)cccc2c1Cn1ccnc1	melting point	190 to 191 °C
CCOC(=O)c1nc(N)sc1-c1nc2ccccn2c1C	melting point	180 to 182 °C
Fc1ccc(CN2CCC(Nc3ccc(C(F)(F)F)nn3)CC2)cc1F	melting point	168 to 169 °C
O=C1c2ccccc2CCc2cc(Br)ccc21	melting point	94 to 96 °C

Reported melting point, compound Nc1ccccc1C(=O)Nc1ccc(Br)c(C(F)(F)F)c1 : ____ 142 to 144 °C

Reported melting point, compound CSc1nccc(-c2cc(C)ccc2N)n1 : ____ 120 to 123 °C

Reported melting point, compound CC(N1C(=O)C(=O)N(c2cccc(C#N)c2)C1=S)C(C)(C)C (stereo not given) : ____ 168 to 169 °C

Reported melting point, compound CCCc1c(C(=O)C(C)C)c2ccc(C(=O)O)cc2n1Cc1ccccc1Br : ____ 193 to 194 °C

Reported melting point, compound COc1cc2ncnc(N3CCN(C(=O)NCc4cccnc4)CC3)c2cc1OC : ____ 188 to 189 °C

----------
Recorded melting point for the following compounds

Reported melting point, compound O=C1CN(C(=O)OCC2c3ccccc3-c3ccccc32)CC(=O)O1 : ____ 180 to 185 °C

Reported melting point, compound CCCOc1nc(NC(C)C(O)c2ccccc2)c2cnn(-c3ccccc3)c2n1 (stereo not given) : ____ 136 to 138 °C

Reported melting point, compound COC(=O)CCC(=O)c1ccc(-c2ccc(Cl)s2)cc1 : ____ 117 to 118 °C

Reported melting point, compound Cc1nc2n(CCN3CCOCC3)c3ccccc3n2c1C(=O)c1ccc(Cl)cc1 : ____ 147 to 148 °C

Reported melting point, compound CCOC(=O)NC(=N)c1ccc(-n2cc(C)n(-c3ccc(CCC(=O)OC)cc3)c2=O)cc1 : ____ 198 to 199 °C
